Cited source for all entries: ChEMBL document CHEMBL1139016

# System: Huh-7
# protocolText: Cytotoxicity against Huh7 cells by MTS assay
# Format: functional
# cond: Homo sapiens
Below, each entry is listed with its recorded CC50.

Known value: Huh-7 CC50 of the compound C[C@@]1(F)[C@H](O)[C@@H](CO)O[C@H]1n1cnc2c(Cl)ncnc21 equals 27.1 µM

Known value: Huh-7 CC50 of the compound C[C@@]1(F)[C@H](O)[C@@H](CO)O[C@H]1n1cnc2c(N)ncnc21 equals > 100 µM

---

# Tested on: Huh-7
# protocolText: Cytotoxicity against Huh7 cells by MTS assay
# Assay type: functional
# cond: Homo sapiens
Below, each entry is listed with its recorded CC50.

{"columns": ["structureSmiles", "recordedValue"],
 "data": [
  ["C[C@@]1(F)[C@H](O)[C@@H](CO)O[C@H]1n1cnc2c(O)nc(N)nc21", "> 100 µM"]
]}

The compound listed as C[C@@]1(F)[C@H](O)[C@@H](CO)O[C@H]1n1cnc2c(Cl)nc(N)nc21 has a reported CC50 of > 100 µM

The compound listed as C[C@@]1(O)[C@H](O)[C@@H](CO)O[C@H]1n1cnc2c(=O)[nH]c(N)nc21 has a reported CC50 of > 100 µM

The compound listed as C[C@@]1(O)[C@H](O)[C@@H](CO)O[C@H]1n1cnc2c(N)ncnc21 has a reported CC50 of 15 µM
